System: MDA-MB-435 melanoma
test: NCI-60 one-dose screen, 48 h
condition: 10 µM unless noted
About 83,000 compounds went through this panel and 20% of them were active in at least one assay; those are over-represented in the sample as a whole. The source made the active and inactive calls. The calls were made as follows: active = growth percent below 10; inactive = the rest.
Outcome field: choose from active, inactive

INSERT INTO assay_data (compound, group) VALUES
  ('CC/C(=C(\CC)c1ccc(OCCN(CC)CC)cc1)c1ccc(OCCN(CC)CC)cc1', 'inactive'),
  ('COC1OCC(OS(=O)(=O)c2ccc(C)cc2)C(OC(=O)c2ccccc2)C1OC(=O)c1ccccc1 (stereo not given)', 'active'),
  ('CC12CCC3C(CCC4CC(O)CCC43C)C1C/C(=C/O)C(=O)O2 (stereo not given)', 'inactive');

[Q] Which result was noted for this compound in the test: CCC1S/C(=N\N=C(/C)c2cccs2)N(c2ccccc2)C1=O (stereo not given)
[A] inactive

[Q] Which result was noted for this compound in the test: OCc1cn(-c2ccc(Cl)cc2)nc1-c1ccc(O)cc1
[A] inactive

[Q] Which result was noted for this compound in the test: Cc1cc(SCc2ccc(Cl)cc2Cl)nc(SCc2ccc(Cl)cc2Cl)n1
[A] inactive

[Q] Which result was noted for this compound in the test: C=C1C(=O)O[C@H]2[C@H]1CC/C(COC(=O)n1ccnc1C)=C\CC[C@@]1(C)O[C@@H]21
[A] inactive

[Q] Which result was noted for this compound in the test: C#C[C@@]1(O)[C@@H](CO)O[C@@H](n2cc(C(F)(F)F)c3c(N)ncnc32)[C@@H]1O
[A] inactive

[Q] Which result was noted for this compound in the test: COc1ccc(C(=O)NC(=O)Nc2ccc3c(c2)NC(=O)/C3=C\c2[nH]c(C)c(C(=O)O)c2C)cc1
[A] inactive

====

Below, each of the molecules is paired with its reported growth value.
Tested on: MCF7 breast
test: NCI-60 one-dose screen, 48 h (100 = growth as untreated, 0 = no growth, -100 = all killed)
condition: 10 µM unless noted
The panel holds about 83,000 compounds, 20% with a hit somewhere; the sample as a whole holds those more often. Active and inactive are the calls of the source. The calls were made as follows: active = growth percent below 10; inactive = the rest.

Past entries and their recorded results:
INSERT INTO results (molecule, result) VALUES
  ('CCc1c(C)c2cc(-n3c(-c4ccc(OC)cc4)csc3=N)c(O)c(C)c2oc1=O', '9.39% (active)'),
  ('CN(C)CCNc1nc2ccccc2c2c(=O)c3ccccc3sc12', '-46.9% (active)'),
  ('COC1OCC(OS(=O)(=O)c2ccc(C)cc2)C(OC(=O)c2ccccc2)C1OC(=O)c1ccccc1 (stereo not given)', '22.6% (inactive)'),
  ('C#C[C@@]1(O)[C@@H](CO)O[C@@H](n2cc(C(F)(F)F)c3c(N)ncnc32)[C@@H]1O', '1.74% (active)');

Okay, now this molecule:
[Q] Item under review: O=C(O)c1ccc(-n2cc(/C=N/Nc3ccccc3F)c(-c3ccc(O)cc3)n2)cc1 . Reported growth?
[A] 73.7% (inactive)

====

System: PC-3 prostate
test: NCI-60 one-dose screen, 48 h (100 = growth as untreated, 0 = no growth, -100 = all killed)
condition: 10 µM unless noted
About 83,000 compounds went through this panel and 20% of them were active in at least one assay; those are over-represented in the sample as a whole.
measure: growth (%)
Write the number in % without appending the unit.

Past entries and their recorded results:
INSERT INTO assay_data (sample_smiles, scale_unit, numeric_result) VALUES
  ('COc1cc(/C=C/C(=O)c2c(C)n([O-])c3cc(C)c(C)cc3[n+]2=O)cc(OC)c1OC', '%', 59.6),
  ('Cc1cccc[n+]1CCC[n+]1ccccc1C', '%', 95.4),
  ('CCCCCCCCCCCCCCCC(=O)NS(=O)(=O)OC[C@H]1O[C@@H](n2cnc3c(N)ncnc32)[C@H](O)[C@@H]1O', '%', -52.4),
  ('[2H]c1nc(Nc2ncc(F)c(-c3cc(F)c4nc(C)n(C(C)C)c4c3)n2)c([2H])c([2H])c1CN1CCN(CC)CC1', '%', 47.8);

Okay, now this compound:
[Q] Item under review: O=C(C[n+]1cccc(Br)c1)c1ccc2c(c1)CCCC2 . Reported growth?
[A] 94.3

====

Tested on: SN12C renal
test: NCI-60 one-dose screen, 48 h (100 = growth as untreated, 0 = no growth, -100 = all killed)
condition: 10 µM unless noted
Procedure: Growth inhibition of the SN12C human tumor cell line is measured as a screen for anti-cancer activity. Cells are grown in 96 well plates and exposed to the test compound for 48 hours. Compounds are tested at a single concentration, which is 10^-5 M for most compounds. The reported endpoint is percent growth (GI% or GIPRCNT), where numbers from 0 - 100% represent growth inhibition, and numbers from -100% - 0 represent cell death. For example, a value of 40 represents 60% growth inhibition. […]
The panel holds about 83,000 compounds, 20% with a hit somewhere; the sample as a whole holds those more often.
measure: growth (%)
Write the number in % without appending the unit.

Past entries and their recorded results:
INSERT INTO assay_data (molecule, scale_unit, numeric_result) VALUES
  ('CS(=O)(=O)Nc1cccc(-c2ccc3ncnc(Nc4ccc(F)c(Cl)c4)c3c2)c1', '%', 44.2),
  ('COc1cc(NS(=O)(=O)c2ccc(N)cc2)ncn1', '%', 93.8),
  ('CCN(CC)C(=O)C1CCN(C(=O)c2ccccc2)CC1', '%', 101),
  ('CCC1S/C(=N\N=C(/C)c2cccs2)N(c2ccccc2)C1=O (stereo unspecified)', '%', 135),
  ('OCCOCC(F)(F)F', '%', 116);

[Q] Item under review: Nc1nc(-c2cc3c(cc2Cl)NC(=O)/C3=C/c2ccccc2)cs1 . Reported growth?
[A] 51.9

[Q] Item under review: CCOc1ccccc1C(=O)N1CCN(c2cc(Cl)cc(Cl)c2)CC1 . Reported growth?
[A] 25.7

[Q] Item under review: C=C1C(=O)O[C@H]2[C@H]1CC/C(COC(=O)c1cccc3ccccc13)=C\CC[C@@]1(C)O[C@@H]21 . Reported growth?
[A] -55.3

[Q] Item under review: C/C(=N/O)c1ccc(NC(=O)Cn2nc(-c3ccc(Cl)cc3)nc2N)cc1 . Reported growth?
[A] 102

[Q] Item under review: COc1ccc(Cl)cc1NC(=O)c1cc2c([nH]1)-c1nc(N)sc1CCC2 . Reported growth?
[A] 97.4

====

Test system: K-562 leukemia
test: NCI-60 one-dose screen, 48 h (100 = growth as untreated, 0 = no growth, -100 = all killed)
condition: 10 µM unless noted
This is part of a sample that, as a whole, favours compounds with a hit. Of some 83,000 tested, about 20% had one in any assay.
measure: growth (%)
Write the number in % without appending the unit.

INSERT INTO measurements (sample_smiles, tested_on, measure, numeric_result) VALUES
  ('COc1cc(/C=C\c2cc(/C=C\c3ccc(O)c(OC)c3)n(C(=O)CNc3ccccc3OC)n2)ccc1O', 'K-562 leukemia', 'growth', 19.4),
  ('O=c1c2ccccc2sc2c(N3CCCC3)nc3ccccc3c12', 'K-562 leukemia', 'growth', 86.5),
  ('O=C(Nc1ccccc1F)Nc1ccccc1Cl', 'K-562 leukemia', 'growth', 55.8),
  ('c1cncc(-c2nc3ccccc3[nH]2)c1', 'K-562 leukemia', 'growth', 102);

[Q] Item under review: O=S(=O)(CCN1CCOCC1)Nc1cncc(-c2ccc3ncnc(Nc4ccc(F)c(Cl)c4)c3c2)c1 . Reported growth?
[A] 96.5

[Q] Item under review: Cl[C@@H]1CCO[C@H](c2cc3ccccc3c3ccccc23)C1 . Reported growth?
[A] 95.5

====

System: DU-145 prostate
test: NCI-60 one-dose screen, 48 h (100 = growth as untreated, 0 = no growth, -100 = all killed)
condition: 10 µM unless noted
Compounds without any hit were thinned out: in the full panel of roughly 83,000, 20% have a hit.
For each record, check the reported growth: if it is below 40% write Criterion met, else write Criterion not met.

Some entries whose results are on file:
INSERT INTO results (sample_smiles, group) VALUES
  ('COc1ccc(/C=C2/C(=O)Nc3cc(Cl)c(-c4csc(N)n4)cc32)cc1', 'Criterion not met'),
  ('COc1ccc(C(=O)Cn2cnc3c(Nc4cc(C(=O)Nc5ccc(N6CCN(CCO)CC6)cc5)ccc4C)ncnc32)cc1', 'Criterion not met'),
  ('OCc1cn(-c2ccc(Cl)cc2)nc1-c1ccc(O)cc1', 'Criterion not met');

[Q] Just wondering, is growth of O=C(Nc1ccc(-n2ccc3c(NC(=O)c4ccccc4)ncnc32)cc1)c1cccc(C(F)(F)F)c1 below 40%?
[A] Criterion met

[Q] Just wondering, is growth of O=C(NCCNc1nccc(-c2c(-c3cccc(O)c3)nc3sccn23)n1)Nc1cc(C(F)(F)F)cc(C(F)(F)F)c1 below 40%?
[A] Criterion not met

[Q] Just wondering, is growth of COc1ccc(-c2coc3c(CO)c(O)ccc3c2=O)cc1 below 40%?
[A] Criterion met

[Q] Just wondering, is growth of Fc1ccc(Nc2ncnc3ccc(-c4cn[nH]c4)cc23)cc1Cl below 40%?
[A] Criterion not met
